Reference source for all entries: the supplement of paper PMC9112550

System: Escherichia coli TOP10
assay: shrunken log2 fold change of peptide-encoding DNA abundance (4.5 h post-induction vs induction); higher = less antimicrobial activity (less host growth inhibition)
condition: time post-induction: 4.5 h; library: site-saturation at positions 5, 18, 19, 20
In this section, each of the sequences is paired with its reported shrunken log2 fold change.
API doc: respond with a numeric literal and nothing else, no unit.

Some solved cases for reference:
Inquiry: Item `RRIRQRPPRLPRPRPRPPSGPRP` : provide shrunken log2 fold change
Reply text: 0.352

Inquiry: Look up and state reported shrunken log2 fold change for `RRIRGRPPRLPRPRPRPERTPRP`
Reply text: 1.21

Inquiry: Input `RRIRNRPPRLPRPRPRPRREPRP` , output reported shrunken log2 fold change.
Reply text: 0.38

Inquiry: Input `RRIRCRPPRLPRPRPRPTQDPRP` , output reported shrunken log2 fold change.
Reply text: 0.805

Inquiry: Quote shrunken log2 fold change reported for `RRIRYRPPRLPRPRPRPSNHPRP` please.
Reply text: -0.29

***
Inquiry: Give me measured shrunken log2 fold change, please, for this sequence: `RRIRHRPPRLPRPRPRPQLYPRP`
Reply text: -0.238

Inquiry: Tell me measured shrunken log2 fold change for `RRIRYRPPRLPRPRPRPSRCPRP` please.
Reply text: -0.154

Inquiry: For the sequence `RRIRRRPPRLPRPRPRPCMIPRP` , give its measured shrunken log2 fold change value.
Reply text: -0.108

====

Tested on: Escherichia coli TOP10
assay: shrunken log2 fold change of peptide-encoding DNA abundance (4.5 h post-induction vs induction); higher = less antimicrobial activity (less host growth inhibition)
condition: time post-induction: 4.5 h; library: site-saturation at positions 5, 18, 19, 20
shrunken log2 fold change below 0.006 gives No; shrunken log2 fold change at or above it gives Yes.

Inquiry: Item `RRIRQRPPRLPRPRPRPFTFPRP` with shrunken log2 fold change of 0.006 or above?
Reply text: No

Inquiry: Does `RRIRCRPPRLPRPRPRPKLAPRP` have a reported shrunken log2 fold change of at least 0.006?
Reply text: Yes

Inquiry: Record `RRIRSRPPRLPRPRPRPKCRPRP` ; criterion: shrunken log2 fold change no lower than 0.006. Met?
Reply text: Yes

Inquiry: Exam item: decide whether the reported shrunken log2 fold change for `RRIRYRPPRLPRPRPRPDDVPRP` is at least 0.006.
Reply text: Yes

Continuing:
Inquiry: API: above_or_equal(metric=shrunken log2 fold change, cutoff=0.006) for item `RRIRTRPPRLPRPRPRPWTVPRP`
Reply text: No

Inquiry: Confirm if shrunken log2 fold change reported for the sequence `RRIRMRPPRLPRPRPRPGYCPRP` is 0.006 or above.
Reply text: Yes

Inquiry: hey, is shrunken log2 fold change for this one >= 0.006? `RRIRIRPPRLPRPRPRPLFVPRP`
Reply text: No

Inquiry: Form field: shrunken log2 fold change at least 0.006? Entry: `RRIRPRPPRLPRPRPRPDEDPRP`
Reply text: No

Inquiry: For this sequence, is measured shrunken log2 fold change 0.006 or higher? `RRIRTRPPRLPRPRPRPLWDPRP`
Reply text: No

Inquiry: Could you tell me if the measured shrunken log2 fold change of `RRIRCRPPRLPRPRPRPESSPRP` reaches 0.006 or more?
Reply text: No

Inquiry: I'd appreciate it if you could say whether `RRIRSRPPRLPRPRPRPKQYPRP` has shrunken log2 fold change at least equal to 0.006.
Reply text: No

Inquiry: State whether the measured shrunken log2 fold change reaches 0.006, counting equality as reaching it, for `RRIRKRPPRLPRPRPRPASPPRP`
Reply text: Yes

Inquiry: Does shrunken log2 fold change meet or surpass 0.006 for `RRIRCRPPRLPRPRPRPVVAPRP` ?
Reply text: Yes

Inquiry: Does the sequence `RRIRERPPRLPRPRPRPEYAPRP` have recorded shrunken log2 fold change that is 0.006 or more?
Reply text: No

Inquiry: Dear colleague, could you confirm whether `RRIRKRPPRLPRPRPRPKTFPRP` has shrunken log2 fold change at or above 0.006?
Reply text: No

Inquiry: // inclusive: shrunken log2 fold change at least 0.006? input: `RRIRDRPPRLPRPRPRPHRIPRP`
Reply text: No

Inquiry: In plain terms: is recorded shrunken log2 fold change at least 0.006 for `RRIRQRPPRLPRPRPRPVLDPRP` ?
Reply text: Yes

Inquiry: Could you please find out whether `RRIRKRPPRLPRPRPRPWGNPRP` has shrunken log2 fold change that meets 0.006 or exceeds it?
Reply text: No

Inquiry: API: above_or_equal(metric=shrunken log2 fold change, cutoff=0.006) for item `RRIRRRPPRLPRPRPRPPMMPRP`
Reply text: Yes

Inquiry: Threshold query (shrunken log2 fold change >= 0.006) on `RRIRKRPPRLPRPRPRPTVRPRP`
Reply text: Yes

Inquiry: Check the entry `RRIRLRPPRLPRPRPRPLQFPRP` : does shrunken log2 fold change equal or exceed 0.006?
Reply text: Yes

====

Tested on: Escherichia coli TOP10
assay: shrunken log2 fold change of peptide-encoding DNA abundance (4.5 h post-induction vs induction); higher = less antimicrobial activity (less host growth inhibition)
condition: time post-induction: 4.5 h; library: site-saturation at positions 5, 18, 19, 20
Examples of sequences with documented shrunken log2 fold change follow.

Inquiry: Input `RRIRWRPPRLPRPRPRPCMIPRP` , output reported shrunken log2 fold change.
Reply text: -0.471

Inquiry: Recall and state the measured shrunken log2 fold change for `RRIRQRPPRLPRPRPRPIGKPRP` .
Reply text: 0.0819

Inquiry: Assign shrunken log2 fold change to the following record: `RRIRTRPPRLPRPRPRPENKPRP`
Reply text: -0.178

Inquiry: Hello, please tell me recorded shrunken log2 fold change for this one: `RRIRNRPPRLPRPRPRPHPQPRP`
Reply text: -0.106

Inquiry: Give the reported value of shrunken log2 fold change for this record: `RRIRSRPPRLPRPRPRPDVEPRP`
Reply text: 0.00664

Inquiry: Input `RRIRWRPPRLPRPRPRPCWGPRP` , output reported shrunken log2 fold change.
Reply text: -0.122

Inquiry: Report shrunken log2 fold change for `RRIRARPPRLPRPRPRPMWMPRP`
Reply text: 0.0208

Read the next record carefully.
Inquiry: Return shrunken log2 fold change (reported value) for this sequence: `RRIRKRPPRLPRPRPRPMMNPRP`
Reply text: 0.154

====

Items are presented alongside their recorded shrunken log2 fold change.
Test system: Escherichia coli TOP10
assay: shrunken log2 fold change of peptide-encoding DNA abundance (4.5 h post-induction vs induction); higher = less antimicrobial activity (less host growth inhibition)
condition: time post-induction: 4.5 h; library: site-saturation at positions 5, 18, 19, 20

Check out these entries, answers already filled in.
Inquiry: Output measured shrunken log2 fold change for this item: `RRIRARPPRLPRPRPRPYAQPRP`
Reply text: -0.181

Inquiry: Give reported shrunken log2 fold change value for `RRIRFRPPRLPRPRPRPHAEPRP`
Reply text: -0.00295

Continuing:
Inquiry: Quick one: give measured shrunken log2 fold change for `RRIRMRPPRLPRPRPRPEQHPRP`
Reply text: 1.06

Inquiry: Report measured shrunken log2 fold change; entry is `RRIRMRPPRLPRPRPRPGFHPRP`
Reply text: -0.039

Inquiry: Give the reported shrunken log2 fold change for this sequence. `RRIRYRPPRLPRPRPRPDYGPRP`
Reply text: -0.205

Inquiry: Let me know recorded shrunken log2 fold change for `RRIRCRPPRLPRPRPRPYCYPRP` , thanks.
Reply text: -0.669

Inquiry: Using the record for `RRIRFRPPRLPRPRPRPFDNPRP` , state its measured shrunken log2 fold change.
Reply text: -0.31

Inquiry: Give shrunken log2 fold change for `RRIRMRPPRLPRPRPRPMFWPRP`
Reply text: 0.0479

====

System: Escherichia coli TOP10;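 also: peptides expressed intracellularly from a pBAD plasmid library in pooled LB shake-flask culture, induced with 0.3% L-arabinose, DNA abundance read by NGS, three biological replicates, DESeq2 with apeglm shrinkage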
assay: shrunken log2 fold change of peptide-encoding DNA abundance (4.5 h post-induction vs induction); higher = less antimicrobial activity (less host growth inhibition)
condition: time post-induction: 4.5 h; library: site-saturation at positions 5, 18, 19, 20
endpoint: shrunken log2 fold change
Reply briefly: the number, and no unit.

Field: example entries. Status: answers known.
Inquiry: Let me know recorded shrunken log2 fold change for `RRIRHRPPRLPRPRPRPFFIPRP` , thanks.
Reply text: -0.393

Inquiry: Output measured shrunken log2 fold change for this item: `RRIRLRPPRLPRPRPRPSPYPRP`
Reply text: -0.674

Inquiry: Give shrunken log2 fold change for the following sequence: `RRIRERPPRLPRPRPRPTMLPRP`
Reply text: 0.00422

Inquiry: Could you please provide reported shrunken log2 fold change for `RRIRVRPPRLPRPRPRPVRDPRP` ? Thanks!
Reply text: 0.0998

Inquiry: Quick one: give measured shrunken log2 fold change for `RRIRERPPRLPRPRPRPIDLPRP`
Reply text: -0.219

Inquiry: Give a short answer stating reported shrunken log2 fold change for `RRIRKRPPRLPRPRPRPGDFPRP` .
Reply text: 0.18

Inquiry: Please look at this sequence and report its shrunken log2 fold change: `RRIRFRPPRLPRPRPRPYQNPRP`
Reply text: -0.0547

Inquiry: Fill in shrunken log2 fold change for record `RRIRQRPPRLPRPRPRPWKAPRP`
Reply text: -0.112

Inquiry: Respond only with shrunken log2 fold change recorded for `RRIRHRPPRLPRPRPRPSFAPRP`
Reply text: 0.0263

Inquiry: For `RRIRARPPRLPRPRPRPDTHPRP` , write its shrunken log2 fold change.
Reply text: 0.0877

More entries:
Inquiry: Report measured shrunken log2 fold change; entry is `RRIRWRPPRLPRPRPRPANNPRP`
Reply text: -0.205

Inquiry: Note down shrunken log2 fold change recorded for `RRIRNRPPRLPRPRPRPKHWPRP`
Reply text: 0.0916

Inquiry: Report measured shrunken log2 fold change; entry is `RRIRFRPPRLPRPRPRPKNLPRP`
Reply text: -0.225

Inquiry: Fill in shrunken log2 fold change for record `RRIRFRPPRLPRPRPRPPGSPRP`
Reply text: 0.238

Inquiry: Supply recorded shrunken log2 fold change for `RRIRGRPPRLPRPRPRPRCNPRP` here.
Reply text: 0.551
